Assay: Cytotoxicity against human WW030272 cells after 96 hrs by SRB assay
Type: cell-based
experimental-endpoint: IC50 (µmol)
Answers are plain numbers, in µmol.

COC(=O)[C@]12CC[C@@H](C)[C@@](C)(O)[C@H]1C1=CC[C@@H]3[C@@]4(C)C[C@@H](O)[C@@H](O)C(C)(C)[C@@H]4CC[C@@]3(C)[C@]1(C)CC2 [EUSCAPHIC ACID METHYL ESTER] = 23.4
COC(=O)[C@]12CC[C@@H](C)[C@@](C)(O)[C@H]1C1=CC[C@@H]3[C@@]4(C)C[C@@H](OC(=O)CCl)[C@H](OC(=O)CCl)C(C)(C)[C@@H]4CC[C@@]3(C)[C@]1(C)CC2 = 3.4
COC(=O)[C@]12CC[C@@H](C)[C@@](C)(O)[C@H]1C1=CC[C@@H]3[C@@]4(C)C[C@@H](O)[C@H](O)C(C)(C)[C@@H]4CC[C@@]3(C)[C@]1(C)CC2 [TORMENTIC ACID METHYL ESTER] = 47.5

Let's switch to this compound now.
**Q:** Which value of IC50 has been reported for C[C@@H]1CC[C@]2(C(=O)O)CC[C@]3(C)C(=CC[C@@H]4[C@@]5(C)C[C@@H](O)[C@H](O)C(C)(C)[C@@H]5CC[C@]43C)[C@@H]2[C@]1(C)O [TOMENTIC ACID] in the records?
**A:** 47.7
